biological target: T1, CH2-4 constant domains of human IgE linked to a transmembrane protein, on 293 cells (human, UniProt P01854-1 104-428); assay: flow cytometry, 293 cells expressing human IgE CH2-4
T1 construct: domain: CH2-4 constant domains; also called human IgE-expressing 293 cells
T1 sequence (P01854 other isoform, or with tags, fused parts or gaps): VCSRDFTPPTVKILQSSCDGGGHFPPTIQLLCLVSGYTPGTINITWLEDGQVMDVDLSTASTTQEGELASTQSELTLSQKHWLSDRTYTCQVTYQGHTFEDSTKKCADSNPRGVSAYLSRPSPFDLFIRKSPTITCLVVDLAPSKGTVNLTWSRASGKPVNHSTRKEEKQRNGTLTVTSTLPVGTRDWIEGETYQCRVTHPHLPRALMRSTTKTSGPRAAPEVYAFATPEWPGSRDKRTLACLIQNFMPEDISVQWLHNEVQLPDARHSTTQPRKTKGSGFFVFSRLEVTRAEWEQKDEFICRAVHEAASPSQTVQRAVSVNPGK
endpoint.name: Bmax (MFI)
Write the answer as a number in MFI, unit excluded.

May I ask what Bmax has been recorded for hzB10v43-NNT (Fc fusion, monomeric) VHH-Fc: EVQLLESGGGEVQPGGSLRLSCVASGLTFSSYNMGWLRQAPGKEREFVGLSGSSSTSTYYAESVKGRFTISRDTSKNTVYLQMTSLRAEDTAVYYCAARRLLSTYWSDRSWDFWGQGTLVTVEPGGPSVFLFPPKPKDTLMISRTPEVTCVVVDVSHEDPEVKFNWYVDGVEVHNAKTKPREEQYNSTYRVVSVLTVLHQDWLNGKEYKCKVSNKALPAPIEKTISKAKGQPREPQVYTLPPSRDELTKNQVNLTCLVKGFYPSDIAVEWESNGQPENNYKTTPPVLDSDGSFFLNSTLTVDKSRWQQGNVFSCSVMHEALHNHYTQKSLSLSPGK ?
1.42e+06
